# System: MOLT-4 leukemia
# Protocol description: NCI tumour cell line growth inhibition, 48 h
// values below are reported TGI

The examples below pair each entry with its known result.
[
  {
    "Compound": "CN(C)c1nc(-c2cccs2)n2nc(-c3ccc(Cl)cc3)cc2n1",
    "Study target": "MOLT-4 leukemia",
    "TGI": "> 100 µM"
  },
  {
    "Compound": "CCN(Cc1c(F)cccc1F)c1ccc(CO)c(Cl)c1",
    "Study target": "MOLT-4 leukemia",
    "TGI": "71.7 µM"
  },
  {
    "Compound": "O=C1CCn2c([nH]c3cccc4cccc2c43)=N1",
    "Study target": "MOLT-4 leukemia",
    "TGI": "> 100 µM"
  },
  {
    "Compound": "COc1ccc2c(c1)C=CC(C#N)N2C(=O)c1ccccc1 (stereo not drawn)",
    "Study target": "MOLT-4 leukemia",
    "TGI": "> 100 µM"
  },
  {
    "Compound": "O=C1c2ccccc2-c2cccc3ccc(Cc4ccccc4)c1c23",
    "Study target": "MOLT-4 leukemia",
    "TGI": "> 100 µM"
  }
]

Problem: TGI lookup needed for `O=C(/C=C1\C[C@H]2C=Nc3ccccc3C(=O)N2C1)NCCCCCNC(=O)/C=C1\C[C@H]2C=Nc3ccccc3C(=O)N2C1` , thanks.
Result: > 100 µM

Problem: TGI lookup needed for Cn1c(N)nc2c(nc(OCc3ccccc3)n2C2OC(CO)C(O)C2O)c1=O (stereo not drawn) , thanks.
Result: > 100 µM

Problem: TGI lookup needed for `CC(C)(C)c1ccc2c(c1)OCc1n[nH]c(n1)COc1cc(C(C)(C)C)ccc1OCCOCCO2` , thanks.
Result: 17.6 µM

Problem: TGI lookup needed for COc1ccc(C2C(N)=NCC2c2ccccn2)cc1 (stereo not drawn) , thanks.
Result: > 100 µM

Problem: TGI lookup needed for `Cc1ccc(-c2nc(C(Cl)Cl)n3nc(-c4ccccc4)cc3n2)cc1` , thanks.
Result: > 100 µM

Problem: TGI lookup needed for `CCc1cc(=O)n(/C(C)=C/c2ccccc2)n1C` , thanks.
Result: > 100 µM

Problem: TGI lookup needed for `Cc1ccc2c(c1)C(=O)/C(=C\c1ccc(Cl)cc1)CCS2(=O)=O` , thanks.
Result: 9.79 µM

Problem: TGI lookup needed for `Clc1ccc(CNc2nc3ccccc3nc2-c2cccs2)c(Cl)c1` , thanks.
Result: > 100 µM

Problem: TGI lookup needed for `N#Cc1c(-c2ccccc2)nc2c(c(-c3ccccc3)nn2-c2ccccc2)c1-c1ccc(O)cc1` , thanks.
Result: 7.86 µM

====

// values below are reported TGI
# System: RPMI-8226 leukemia
# Protocol description: NCI tumour cell line growth inhibition, 48 h

[
  {
    "Compound": "CNC(=O)c1ccc(-c2cnc3ncc(Cc4ccc5ncccc5c4)n3n2)cc1F",
    "Study target": "RPMI-8226 leukemia",
    "Observed measurement": "> 100 µM"
  },
  {
    "Compound": "NC(N)=N/N=C/c1c(-c2ccccn2)nc2sc(Cl)cn12",
    "Study target": "RPMI-8226 leukemia",
    "Observed measurement": "29 µM"
  },
  {
    "Compound": "O=C(CN=C(CN(c1ccccc1)c1ccccc1)Oc1c(Cl)cc(Cl)cc1Cl)n1cnc2ccccc21",
    "Study target": "RPMI-8226 leukemia",
    "Observed measurement": "> 100 µM"
  },
  {
    "Compound": "CCOC(=O)c1csc(NC(=O)CCCC#N)n1",
    "Study target": "RPMI-8226 leukemia",
    "Observed measurement": "> 100 µM"
  },
  {
    "Compound": "CCC1C(=O)OCc2c1cc1n(c2=O)CCC12OCCO2 (stereo unspecified)",
    "Study target": "RPMI-8226 leukemia",
    "Observed measurement": "> 100 µM"
  }
]

Next compound, please.
Problem: TGI lookup needed for `O=CN(O)CC(=O)O` , thanks.
Result: > 100 µM

====

# System: SW-620 colon
# Protocol description: NCI tumour cell line growth inhibition, 48 h; in the data active = GI50 below about 0.43 µM; inactive = the rest
API: response.call in yes (1) for active, no (0) for inactive

Recorded results for 9 molecules are shown here.
[
  {
    "Molecule": "Cc1ccc(-c2nc(C(Cl)Cl)n3nc(-c4ccccc4)cc3n2)cc1",
    "Class name": "yes (1)"
  },
  {
    "Molecule": "CCCCCCNc1nc(NCCCCCC)c2[nH]c(NCCCCCC)nc2n1",
    "Class name": "no (0)"
  },
  {
    "Molecule": "C=C(C)[C@@H]1CC[C@@]2(C(=O)O)CC[C@]3(C)C(CCC4[C@@]5(C)CCC(OS(=O)(=O)c6ccccc6)C(C)(C)C5CC[C@]43C)C12 (stereo not given in full)",
    "Class name": "no (0)"
  },
  {
    "Molecule": "NC(N)=N/N=C/c1c(-c2ccccn2)nc2sc(Cl)cn12",
    "Class name": "no (0)"
  },
  {
    "Molecule": "COCC(=O)OC1CCn2c1nc1c2C(=O)C(C)=C(NC(C)=O)C1=O (stereo not given)",
    "Class name": "no (0)"
  },
  {
    "Molecule": "O=C(N/N=C/c1ccc(Cl)cc1Cl)c1ccccc1Nc1cccc(C(F)(F)F)c1",
    "Class name": "no (0)"
  },
  {
    "Molecule": "CC(=O)[CH-]C(C)=O.CC(=O)[CH-]C(C)=O.N=CC=N.[Sn+2]",
    "Class name": "no (0)"
  },
  {
    "Molecule": "CNc1nc(NC2CCCC2)nc(Sc2ccc(OC)cc2)n1",
    "Class name": "no (0)"
  },
  {
    "Molecule": "N#Cc1c(-c2ccccc2)nc2c(c(-c3ccccc3)nn2-c2ccccc2)c1-c1ccc(O)cc1",
    "Class name": "no (0)"
  }
]

Problem: Assay result, entry `COc1ccc(-c2cc(-c3cc(Cl)ccc3Cl)nc3nc(=S)[nH]c(N)c23)cc1` — outcome?
Result: no (0)

====

// values below are reported TGI
# Test system: MDA-MB-435
# Protocol description: NCI tumour cell line growth inhibition, 48 h

The examples below pair each entry with its known result.
[
  {
    "Compound": "COc1ccc(C2C(C#N)=C(N)OC3=C2CCCc2ccc(F)cc23)cc1OC (stereo not given)",
    "Measurement label": "TGI",
    "Observed measurement": "> 53.3 µM"
  },
  {
    "Compound": "CC1=CCC[C@H]2[C@](C)(CC3=CC(=O)C4SCCSC4C3=O)[C@@H](C)CC[C@]12C (stereo not given in full)",
    "Measurement label": "TGI",
    "Observed measurement": "58.7 µM"
  },
  {
    "Compound": "COc1ccc2c(c1)[C@@]13CCN4CC5=CCO[C@H]6CC(=O)N2[C@H]1[C@H]6[C@H]5C[C@H]43",
    "Measurement label": "TGI",
    "Observed measurement": "> 100 µM"
  }
]

Problem: TGI lookup needed for `CS(=O)(=O)Nc1ccc(-c2ccc3c(NC(=O)C4CC4)n[nH]c3c2)cc1` , thanks.
Result: > 25 µM

Problem: TGI lookup needed for `C[C@H]1CCC/C=C/[C@@H]2C[C@H](N)C[C@H]2[C@H](O)/C=C/C(=O)O1` , thanks.
Result: > 100 µM

====

// values below are reported TGI
# System: XF 498 CNS
# Protocol description: NCI tumour cell line growth inhibition, 48 h

The examples below pair each entry with its known result.
[
  {
    "Compound": "CCOC(=O)/C(=C/c1ccco1)P(=O)(OCC)OCC",
    "TGI": "> 100 µM"
  },
  {
    "Compound": "NC(CCSCC(F)F)C(=O)O (stereo not drawn)",
    "TGI": "> 100 µM"
  },
  {
    "Compound": "CCOC(=O)C(C)NC(=O)N(C)C12CC3CC(CC(C3)C1)C2 (stereo not drawn)",
    "TGI": "453 µM"
  },
  {
    "Compound": "CC1(C)CCc2cc3c(cc2O1)OCCC3=O",
    "TGI": "> 100 µM"
  },
  {
    "Compound": "Cc1cc(C)nc(NS(=O)(=O)c2ccc(Nc3c4ccccc4nc4c(C(=O)N5CCN(CCOS(C)(=O)=O)CC5)ccc(Cl)c34)cc2)n1",
    "TGI": "> 100 µM"
  }
]

Problem: TGI lookup needed for `CCC1(CC)C(=O)NC(=S)N=C1N` , thanks.
Result: > 100 µM

Problem: TGI lookup needed for `O=c1cc(-c2ccccc2F)[nH]c2cc3c(cc12)OCO3` , thanks.
Result: 91.7 µM

Problem: TGI lookup needed for `O=c1c2cc3c(=O)n(CCc4ccccc4CO)c(=O)c3cc2c(=O)n1CCc1ccccc1CO` , thanks.
Result: > 100 µM

Problem: TGI lookup needed for C=C(COC(C)=O)CC(/C=C(\C)CCC=C(C)C)OC(C)=O (stereo not drawn) , thanks.
Result: > 100 µM

Problem: TGI lookup needed for O=C(c1ccccc1)[C@H]1Nc2cnccc2C2c3ccccc3CC21 (stereo partly drawn) , thanks.
Result: 64.4 µM

Hey, just so you know, these numbers are from PubChem BioAssay (NCI).
